Cited source for all entries: PubChem BioAssay AID2060493

Tested on: 616215-338-R-J1-PDC tumor spheroids, viability
Experiment: Anticancer human tumor 616215-338-R-J1-PDC patient-derived colon adenocarcinoma cell line growth inhibition [GQUAD]
Settings: second compound 0.316 µM; first compound 1 µM; stronger effect = lower value; spheroids with HUVEC and MSC
viability, T/C less than 30% is TRUE; viability, T/C greater than or equal to 30% is FALSE.

compound: COc1ncnc(C2CC2)c1-c1ncc2cnn(Cc3ccc(-c4nc(C(F)(F)F)cn4C(C)C)cc3)c2n1 + Cc1cnc(CNC(=O)c2c(=O)c3ccc(N4CCCN(C)CC4)nc3n3c2sc2ccccc23)cn1
targetSystem: 616215-338-R-J1-PDC tumor spheroids, viability
answerLabel: FALSE

query: Consider the compound CC1COCCN1c1cc(C2(O)CC3CCC(C2)O3)c2cnn(-c3ccn[nH]3)c2n1 (stereo not given) + CN(C)c1ccc(Nc2c3ccc(NC(=O)CCN4CCCC4)cc3nc3cc(NC(=O)CCN4CCCC4)ccc23)cc1 . Is its viability, T/C strictly less than 30%?
result: FALSE

query: Consider the compound COc1cccc2c1C(=O)c1c(O)c3c(c(O)c1C2=O)CC(O)(C(=O)CO)CC3OC1CC(N)C(O)C(C)O1 (stereo not given) + Cc1cnc(CNC(=O)c2c(=O)c3ccc(N4CCCN(C)CC4)nc3n3c2sc2ccccc23)cn1 . Is its viability, T/C strictly less than 30%?
result: TRUE

query: Consider the compound CC1COCCN1c1cc(C2(S(C)(=N)=O)CC2)nc(-c2ccnc3[nH]ccc23)n1 (stereo not given) + Cc1cnc(CNC(=O)c2c(=O)c3ccc(N4CCCN(C)CC4)nc3n3c2sc2ccccc23)cn1 . Is its viability, T/C strictly less than 30%?
result: FALSE

query: Consider the compound CC(=O)O[C@H]1C(=O)[C@@]2(C)[C@H]([C@H](OC(=O)c3ccccc3)[C@]3(O)C[C@H](OC(=O)[C@H](O)[C@@H](NC(=O)c4ccccc4)c4ccccc4)C(C)=C1C3(C)C)[C@]1(OC(C)=O)CO[C@@H]1C[C@@H]2O + CN(C)c1ccc(Nc2c3ccc(NC(=O)CCN4CCCC4)cc3nc3cc(NC(=O)CCN4CCCC4)ccc23)cc1 . Is its viability, T/C strictly less than 30%?
result: TRUE

###

Tested on: 616215-338-R-J1-PDC tumor spheroids, viability
Experiment: Anticancer human tumor 616215-338-R-J1-PDC cell line growth inhibition [GQUAD];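 note: spheroids exposed to agents for 7 days before readout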
Conditions: curve of first compound; second compound 3.16 µM; spheroids with HUVEC and MSC
measurementKind: IC50

compound: O=C(c1cc(Cc2n[nH]c(=O)c3ccccc23)ccc1F)N1CCN(C(=O)C2CC2)CC1 + CN(C)c1ccc(Nc2c3ccc(NC(=O)CCN4CCCC4)cc3nc3cc(NC(=O)CCN4CCCC4)ccc23)cc1
IC50: > 10 µM

compound: C=CC(=O)N1CCN(c2nc(=O)n(-c3c(C)ccnc3C(C)C)c3nc(-c4c(O)cccc4F)c(F)cc23)C(C)C1 (stereo not given) + Cc1cnc(CNC(=O)c2c(=O)c3ccc(N4CCCN(C)CC4)nc3n3c2sc2ccccc23)cn1
IC50: < 0.0316 µM

compound: Cn1ncnc1[C@H]1c2n[nH]c(=O)c3cc(F)cc(c23)N[C@@H]1c1ccc(F)cc1 + Cc1[nH]c2ccc(F)cc2c1-c1nc2c3cccnc3c3ncccc3c2[nH]1
IC50: > 0.316 µM

compound: COc1cccc2c1C(=O)c1c(O)c3c(c(O)c1C2=O)CC(O)(C(=O)CO)CC3OC1CC(N)C(O)C(C)O1 (stereo not given) + Cc1cnc(CNC(=O)c2c(=O)c3ccc(N4CCCN(C)CC4)nc3n3c2sc2ccccc23)cn1
IC50: < 0.0316 µM

// returns IC50 for CC[C@@]1(O)C(=O)OCc2c1cc1n(c2=O)Cc2cc3c(CN(C)C)c(O)ccc3nc2-1 + Cc1cnc(CNC(=O)c2c(=O)c3ccc(N4CCCN(C)CC4)nc3n3c2sc2ccccc23)cn1 with 616215-338-R-J1-PDC tumor spheroids, viability; value = < 0.000999 µM

###

System: 616215-338-R-J1-PDC tumor spheroids, viability
Assay: Anticancer human tumor 616215-338-R-J1-PDC cell line growth inhibition [GQUAD]; active means viability on the fitted dose curve at most 10% of control; inactive means the rest;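 note: spheroids exposed to agents for 7 days before readout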
Conditions: second compound 10 µM; first compound 0.316 µM; spheroids with HUVEC and MSC
// one of 1 (yes) for active, 0 (no) for inactive, no free text

molecule: C=CC(=O)N1CCN(c2nc(=O)n(-c3c(C)ccnc3C(C)C)c3nc(-c4c(O)cccc4F)c(F)cc23)C(C)C1 (stereo unspecified) + CN(C)c1ccc(Nc2c3ccc(NC(=O)CCN4CCCC4)cc3nc3cc(NC(=O)CCN4CCCC4)ccc23)cc1
answerLabel: 0 (no)

molecule: O=c1[nH]cc(F)c(=O)[nH]1 + Cc1[nH]c2ccc(F)cc2c1-c1nc2c3cccnc3c3ncccc3c2[nH]1
answerLabel: 0 (no)

molecule: CC(C)(O)C1CCC(Nc2ccc3ncc(-c4cccc(C(F)(F)F)c4)n3n2)CC1 (stereo unspecified) + Cc1cnc(CNC(=O)c2c(=O)c3ccc(N4CCCN(C)CC4)nc3n3c2sc2ccccc23)cn1
answerLabel: 0 (no)

molecule: CC[C@@]1(O)C(=O)OCc2c1cc1n(c2=O)Cc2cc3c(CN(C)C)c(O)ccc3nc2-1 + CN(C)c1ccc(Nc2c3ccc(NC(=O)CCN4CCCC4)cc3nc3cc(NC(=O)CCN4CCCC4)ccc23)cc1
answerLabel: 0 (no)

query: Status in this test for CCc1c2c(nc3ccc(O)cc13)-c1cc3c(c(=O)n1C2)COC(=O)[C@]3(O)CC + Cc1cnc(CNC(=O)c2c(=O)c3ccc(N4CCCN(C)CC4)nc3n3c2sc2ccccc23)cn1 ?
result: 1 (yes)

query: Status in this test for COc1ncnc(C2CC2)c1-c1ncc2cnn(Cc3ccc(-c4nc(C(F)(F)F)cn4C(C)C)cc3)c2n1 + Cc1[nH]c2ccc(F)cc2c1-c1nc2c3cccnc3c3ncccc3c2[nH]1 ?
result: 0 (no)

query: Status in this test for COc1cc(C2c3cc4c(cc3C(OC3OC5COC(C)OC5C(O)C3O)C3COC(=O)C23)OCO4)cc(OC)c1O (stereo unspecified) + Cc1cnc(CNC(=O)c2c(=O)c3ccc(N4CCCN(C)CC4)nc3n3c2sc2ccccc23)cn1 ?
result: 0 (no)

query: Status in this test for Nc1ccn(C2OC(CO)C(O)C2(F)F)c(=O)n1 (stereo unspecified) + Cc1[nH]c2ccc(F)cc2c1-c1nc2c3cccnc3c3ncccc3c2[nH]1 ?
result: 0 (no)

query: Status in this test for CC(C)n1c(=O)n(C)c2cnc3cc(F)c(-c4ccc(OCCCN5CCCCC5)nc4)cc3c21 + Cc1cnc(CNC(=O)c2c(=O)c3ccc(N4CCCN(C)CC4)nc3n3c2sc2ccccc23)cn1 ?
result: 0 (no)

query: Status in this test for CC1COCCN1c1cc(C2(S(C)(=N)=O)CC2)nc(-c2ccnc3[nH]ccc23)n1 (stereo unspecified) + Cc1[nH]c2ccc(F)cc2c1-c1nc2c3cccnc3c3ncccc3c2[nH]1 ?
result: 0 (no)

query: Status in this test for Cn1ncnc1[C@H]1c2n[nH]c(=O)c3cc(F)cc(c23)N[C@@H]1c1ccc(F)cc1 + CN(C)c1ccc(Nc2c3ccc(NC(=O)CCN4CCCC4)cc3nc3cc(NC(=O)CCN4CCCC4)ccc23)cc1 ?
result: 0 (no)

###

Test system: 616215-338-R-J1-PDC tumor spheroids, viability
Assay: Anticancer human tumor 616215-338-R-J1-PDC cell line growth inhibition [GQUAD]; active = viability on the fitted dose curve at most 10% of control; inactive = the rest;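 note: spheroids exposed to agents for 7 days before readout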
Conditions: second compound 10 µM; first compound 3.16 µM; spheroids with HUVEC and MSC
// one of Yes (active), No (inactive), no free text

Example results:
compound: COc1ncnc(C2CC2)c1-c1ncc2cnn(Cc3ccc(-c4nc(C(F)(F)F)cn4C(C)C)cc3)c2n1 + Cc1cnc(CNC(=O)c2c(=O)c3ccc(N4CCCN(C)CC4)nc3n3c2sc2ccccc23)cn1
answerLabel: No

compound: CC(C)(O)C1CCC(Nc2ccc3ncc(-c4cccc(C(F)(F)F)c4)n3n2)CC1 (stereo not drawn) + Cc1[nH]c2ccc(F)cc2c1-c1nc2c3cccnc3c3ncccc3c2[nH]1
answerLabel: Yes

Moving on to the next compound.
query: Status in this test for O=c1[nH]cc(F)c(=O)[nH]1 + Cc1[nH]c2ccc(F)cc2c1-c1nc2c3cccnc3c3ncccc3c2[nH]1 ?
result: No

###

Test system: 616215-338-R-J1-PDC tumor spheroids, viability
Experiment: Anticancer human tumor 616215-338-R-J1-PDC cell line growth inhibition [GQUAD];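 note: spheroids exposed to agents for 7 days before readout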;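 for viability, T/C: percent viability relative to DMSO vehicle control wells taken as 100%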
Settings: second compound 0.316 µM; first compound 1 µM; stronger effect = lower value; spheroids with HUVEC and MSC
Source text: DNA G-quadruplex Stabilizer Agents in Combinations in Complex Spheroids A high-throughput screen of multi-cell type tumor spheroids was designed to identify active combinations of DNA G-quadruplex stabilizer agents and targeted small molecules. […] Compounds. […] If the clinical Cmax for an agent had not been determined, the highest concentration tested was 10 microM. […]
viability, T/C less than 40% is 1; viability, T/C greater than or equal to 40% is -1.

compound: CC(C)(O)C1CCC(Nc2ccc3ncc(-c4cccc(C(F)(F)F)c4)n3n2)CC1 (configuration not stated) + CN(C)c1ccc(Nc2c3ccc(NC(=O)CCN4CCCC4)cc3nc3cc(NC(=O)CCN4CCCC4)ccc23)cc1
answerLabel: 1

compound: COc1ccc([C@@H](O)c2cc(-c3ncnc4cc(N5CCOCC5)ccc34)c(F)cc2Cl)nn1 + Cc1cnc(CNC(=O)c2c(=O)c3ccc(N4CCCN(C)CC4)nc3n3c2sc2ccccc23)cn1
answerLabel: 1

compound: C=CC(=O)N1CCN(c2nc(=O)n(-c3c(C)ccnc3C(C)C)c3nc(-c4c(O)cccc4F)c(F)cc23)C(C)C1 (configuration not stated) + Cc1cnc(CNC(=O)c2c(=O)c3ccc(N4CCCN(C)CC4)nc3n3c2sc2ccccc23)cn1
answerLabel: -1

compound: COc1ncnc(C2CC2)c1-c1ncc2cnn(Cc3ccc(-c4nc(C(F)(F)F)cn4C(C)C)cc3)c2n1 + CN(C)c1ccc(Nc2c3ccc(NC(=O)CCN4CCCC4)cc3nc3cc(NC(=O)CCN4CCCC4)ccc23)cc1
answerLabel: -1

compound: CC(C)n1c(=O)n(C)c2cnc3cc(F)c(-c4ccc(OCCCN5CCCCC5)nc4)cc3c21 + Cc1[nH]c2ccc(F)cc2c1-c1nc2c3cccnc3c3ncccc3c2[nH]1
answerLabel: -1

Moving on to the next compound.
query: Consider the compound C=CC(=O)N1CCN(c2nc(=O)n(-c3c(C)ccnc3C(C)C)c3nc(-c4c(O)cccc4F)c(F)cc23)C(C)C1 (configuration not stated) + Cc1[nH]c2ccc(F)cc2c1-c1nc2c3cccnc3c3ncccc3c2[nH]1 . Is its viability, T/C strictly less than 40%?
result: -1
